Target: Programmed cell death 1 ligand 1 (Homo sapiens, UniProt Q9NZQ7)
Sequence (Q9NZQ7 whole entry): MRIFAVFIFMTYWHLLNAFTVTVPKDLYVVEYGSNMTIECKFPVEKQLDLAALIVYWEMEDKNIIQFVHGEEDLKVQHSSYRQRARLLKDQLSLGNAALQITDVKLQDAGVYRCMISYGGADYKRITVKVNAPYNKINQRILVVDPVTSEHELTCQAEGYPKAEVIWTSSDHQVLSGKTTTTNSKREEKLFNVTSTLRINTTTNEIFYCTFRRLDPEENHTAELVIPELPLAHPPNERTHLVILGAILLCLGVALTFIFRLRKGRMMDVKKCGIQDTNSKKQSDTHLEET
Test: Antagonist activity at human PDL1 assessed as inhibition of human PD1 interaction with human PDL1 by ELISA
# maps each entry to its pIC50
# pIC50 = -log10(concentration in molar units)

Tell me the measured pIC50 of H-CGAISLAPKLQIKES-OH , please.
4.03

Tell me the measured pIC50 of H-CGAISLAPKAQIKES-OH , please.
4.72

Tell me the measured pIC50 of H-CGAISLAPKLQINES-OH , please.
4.09

Tell me the measured pIC50 of H-GAISLAPKLQIND-OH , please.
5.36
